Species: Homo sapiens
assay: Inhibition of human recombinant Erk at 100 nM measured in presence of [33P]-ATP by radiometric analysis relative to control
Kindly supply the reported inhibition values for the records listed here.
Field format: number, assumed %, no unit text.

Look at this compound and give its reported inhibition. C=CC(=O)NCCNc1c(NCc2ccc(Nc3ncc(C(F)(F)F)c(Nc4ccccc4C(=O)NC)n3)cc2)c(=O)c1=O 21.8

What value of inhibition has been recorded for this entry: C=CC(=O)NCCNc1c(NCc2ccc(Nc3ncc(Cl)c(Nc4ccccc4C(=O)NC)n3)cc2)c(=O)c1=O 14.2

Looking for the measured inhibition of C=CC(=O)NCCNc1c(NCc2ccc(Nc3ncc(Cl)c(NCc4cccnc4N(C)S(C)(=O)=O)n3)cc2)c(=O)c1=O , can you help? 4.1

Name the recorded inhibition for CNC(=O)c1ccccc1Nc1nc(Nc2ccc(CNc3c(NCCNC(=O)/C(C#N)=C/C(C)C)c(=O)c3=O)cc2)ncc1Cl . 4.3

====

measuredTarget: Insulin receptor (Homo sapiens) (UniProt P06213)
Sequence (P06213 28-758 limits assumed): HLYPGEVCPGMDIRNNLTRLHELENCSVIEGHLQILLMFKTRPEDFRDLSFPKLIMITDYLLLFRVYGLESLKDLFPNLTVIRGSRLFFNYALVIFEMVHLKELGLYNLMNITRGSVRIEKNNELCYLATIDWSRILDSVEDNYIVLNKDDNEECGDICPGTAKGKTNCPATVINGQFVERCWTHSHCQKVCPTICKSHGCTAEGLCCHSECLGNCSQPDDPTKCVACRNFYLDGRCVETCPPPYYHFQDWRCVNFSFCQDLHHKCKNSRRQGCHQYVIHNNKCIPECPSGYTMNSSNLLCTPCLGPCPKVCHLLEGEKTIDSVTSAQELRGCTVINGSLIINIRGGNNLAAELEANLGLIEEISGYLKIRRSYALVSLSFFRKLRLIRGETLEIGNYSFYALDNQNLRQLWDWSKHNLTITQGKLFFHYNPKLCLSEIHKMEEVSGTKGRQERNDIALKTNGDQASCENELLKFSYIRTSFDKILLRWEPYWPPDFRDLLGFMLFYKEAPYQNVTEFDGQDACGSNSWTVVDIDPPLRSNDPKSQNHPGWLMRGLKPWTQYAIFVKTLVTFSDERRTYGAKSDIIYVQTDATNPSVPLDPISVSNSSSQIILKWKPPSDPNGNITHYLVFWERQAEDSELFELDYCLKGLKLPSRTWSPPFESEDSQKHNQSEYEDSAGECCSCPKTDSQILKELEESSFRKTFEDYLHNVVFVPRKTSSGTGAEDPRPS
Sequence (P06213 763-1382 limits assumed): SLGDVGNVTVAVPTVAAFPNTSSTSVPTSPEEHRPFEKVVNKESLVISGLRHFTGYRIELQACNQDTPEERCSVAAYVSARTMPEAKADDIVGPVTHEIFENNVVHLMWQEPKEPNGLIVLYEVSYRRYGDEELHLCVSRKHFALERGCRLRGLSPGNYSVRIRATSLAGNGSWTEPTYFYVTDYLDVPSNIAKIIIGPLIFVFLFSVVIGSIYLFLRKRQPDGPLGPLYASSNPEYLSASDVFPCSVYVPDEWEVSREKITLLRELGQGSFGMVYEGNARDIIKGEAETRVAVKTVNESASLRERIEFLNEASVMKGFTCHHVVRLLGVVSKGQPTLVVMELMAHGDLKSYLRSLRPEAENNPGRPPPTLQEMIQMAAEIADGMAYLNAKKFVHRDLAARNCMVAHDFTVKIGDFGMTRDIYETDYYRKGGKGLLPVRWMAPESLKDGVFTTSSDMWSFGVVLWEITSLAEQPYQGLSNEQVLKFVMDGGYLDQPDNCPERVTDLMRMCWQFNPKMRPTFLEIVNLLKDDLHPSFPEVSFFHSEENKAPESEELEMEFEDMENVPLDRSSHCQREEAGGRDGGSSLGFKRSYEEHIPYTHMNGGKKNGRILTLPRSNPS
assay: Inhibition of human recombinant IR at 100 nM by [gamma-33ATP] radiometric analysis relative to control
quantityName: inhibition (%)
Return type: number; implicit unit %.

Need inhibition of C=CC(=O)NCCNc1c(NCc2ccc(Nc3ncc(Cl)c(NCc4cccnc4N(C)S(C)(=O)=O)n3)cc2)c(=O)c1=O , thanks. 15.1

I am curious: what inhibition value has been reported for C=CC(=O)NCCNc1c(NCc2ccc(Nc3ncc(C(F)(F)F)c(Nc4ccccc4C(=O)NC)n3)cc2)c(=O)c1=O ? 82.5

Dear colleague, I am looking for the recorded inhibition of the following molecule: C=CC(=O)NCCNc1c(NCc2ccc(Nc3ncc(Cl)c(Nc4ccccc4C(=O)NC)n3)cc2)c(=O)c1=O 57.6

// query inhibition value for entry CNC(=O)c1ccccc1Nc1nc(Nc2ccc(CNc3c(NCCNC(=O)/C(C#N)=C/C(C)C)c(=O)c3=O)cc2)ncc1Cl 32.4

====

Tested on: U-87 MG
assay: Induction of apoptosis in human U87MG cells assessed as live cells at 10 uM incubated for 48 hrs by Annexin-V/propidium iodide staining based flow cytometric method (reference value: 94.2%)
Type: functional, U-87MG ATCC
Record form. Attribute: Activity. Fill in for each entry.
The response must be a number in % with no trailing unit.

Please look up its Activity: C=CC(=O)NCCNc1c(NCc2ccc(Nc3ncc(Cl)c(Nc4ccccc4C(=O)NC)n3)cc2)c(=O)c1=O 90.8

What value of measured Activity is listed for CNC(=O)c1ccccc1Nc1nc(Nc2ccc(CNc3c(NCCNC(=O)/C(C#N)=C/C(C)C)c(=O)c3=O)cc2)ncc1Cl ? 96.4

Which value of Activity has been reported for CNC(=O)c1ccccc1Nc1nc(Nc2ccc(N3CCOCC3)cc2OC)ncc1Cl in the records? 88.1

Quick one: Activity of CNC(=O)c1ccccc1Nc1nc(Nc2ccc(CNc3c(NCCNC(=O)/C(C#N)=C/C4CC4)c(=O)c3=O)cc2)ncc1Cl ? 87.3

====

Tested on: U-87 MG
assay: Induction of cell cycle arrest in human U87MG cells assessed as accumulation at G0/G1 phase at 1 uM incubated for 48 hrs by propidium iodide staining based flow cytometry analysis (reference value: 51.6 +/- […])
Type: functional, U-87MG ATCC
Activity vs 10%: at or above is y, below is n.

Decide: Activity of CNC(=O)c1ccccc1Nc1nc(Nc2ccc(N3CCOCC3)cc2OC)ncc1Cl >= 10%? y

Determine whether measured Activity meets or exceeds 10% for C=CC(=O)NCCNc1c(NCc2ccc(Nc3ncc(C(F)(F)F)c(Nc4ccccc4C(=O)NC)n3)cc2)c(=O)c1=O y

Record C=CC(=O)NCCNc1c(NCc2ccc(Nc3ncc(Cl)c(Nc4ccccc4C(=O)NC)n3)cc2)c(=O)c1=O ; criterion: Activity no lower than 10%. Met? n

Would you say CNC(=O)c1ccccc1Nc1nc(Nc2ccc(CNc3c(NCCNC(=O)/C(C#N)=C/C(C)C)c(=O)c3=O)cc2)ncc1Cl shows Activity at minimum 10%? y

Hi team, for CNC(=O)c1ccccc1Nc1nc(Nc2ccc(CNc3c(NCCNC(=O)/C(C#N)=C/C4CC4)c(=O)c3=O)cc2)ncc1Cl , is the recorded Activity at or above 10%? n

Cited source for all entries: ChEMBL document CHEMBL4699600
